Values compiled from patent US11999732B2.

- Measured Target: human P2X3 receptor (Homo sapiens, UniProt P56373)
- Construct: expressed in transfected cells; host or cells: CHO-K1
- Sequence (P56373 whole entry): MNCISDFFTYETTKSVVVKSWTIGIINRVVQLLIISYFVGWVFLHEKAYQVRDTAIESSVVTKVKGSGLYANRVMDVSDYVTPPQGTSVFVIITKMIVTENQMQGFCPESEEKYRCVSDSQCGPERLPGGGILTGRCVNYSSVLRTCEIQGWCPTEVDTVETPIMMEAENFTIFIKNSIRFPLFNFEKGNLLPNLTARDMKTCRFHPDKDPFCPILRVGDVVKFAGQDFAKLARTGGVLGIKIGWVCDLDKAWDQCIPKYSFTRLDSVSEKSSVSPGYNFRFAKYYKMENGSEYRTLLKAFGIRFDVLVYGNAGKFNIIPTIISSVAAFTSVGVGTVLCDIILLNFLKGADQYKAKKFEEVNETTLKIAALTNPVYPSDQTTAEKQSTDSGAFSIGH
- Protocol Details: Calcium luminescence (photoprotein) assay in CHO-K1 cells co-expressing human P2X3 receptor, α,β-Met-ATP stimulation, FLEXSTATION readout
- Type: cell-based
- Details: Table 8; human P2X3 receptor antagonist activity, CHO-K1 cells, α,β-Met-ATP; read-out: h-P2X3 IC50
IC50 strictly less than 500 nM = TRUE. Otherwise FALSE.

The examples below pair each entry with its known result.
COc1cc(Cc2nn3c(COC(C)C)nnc3c3ncc(N4CCOCC4)cc23)cc(OC)c1; FALSE
COc1ccc(Cc2nn3c(CC4CCOCC4)nnc3c3ncc(N4CCOCC4)cc23)cc1; FALSE
CC(C)c1nnc2c3ncc(N4CCOCC4)cc3c(Cc3ccc(Cl)cc3)nn12; TRUE
Clc1ccc(Cc2nn3c(CC4CCOCC4)nnc3c3ncc(N4CCOCC4)cc23)cc1; TRUE
Cc1ccc(Cc2nn3c(C(C)C)nnc3c3ncc(N4CCOCC4)cc23)cc1; TRUE

## Input hey, is IC50 for CC(C)(C)c1nnc2c3ncc(Br)cc3c(Cc3ccc(Cl)cc3)nn12 lower than 500 nM or not?
## Output FALSE

## Input Further, for CC(C)Cc1nnc2c3ncc(N4CCOCC4)cc3c(Cc3ccc(Cl)cc3)nn12 ?
## Output TRUE

## Input Further, for CC(C)(C)c1nnc2c3ncc(N4CCC(N)CC4)cc3c(Cc3ccc(Cl)cc3)nn12 ?
## Output TRUE

----------
- Measured Target: human P2X3 receptor (Homo sapiens, UniProt P56373)
- Construct: expressed in transfected cells; host or cells: CHO-K1
- Protocol Details: Calcium luminescence (photoprotein) assay in CHO-K1 cells co-expressing human P2X3 receptor, α,β-Met-ATP stimulation, FLEXSTATION readout
- Assay type: cell-based
- Details: Table 6; human P2X3 receptor antagonist activity, CHO-K1 cells, α,β-Met-ATP; read-out: h-P2X3 IC50
IC50 strictly less than 500 nM = satisfied. Otherwise not satisfied.

The examples below pair each entry with its known result.
COc1ccc(CN2C(=O)N3C(=NC(=O)C3C(C)(C)C)c3ncc(N4CCOCC4)cc32)cc1 (stereo not drawn); satisfied
O=C(C1CN=C2c3ncc(N4CCOCC4)cc3N(Cc3ccc(Cl)cc3)C(=O)N21)N1CCOCC1 (stereo not drawn); not satisfied
O=C1N(Cc2ccc(Cl)cc2)c2cc(N3CCOCC3)cnc2C2=NCC(c3ccccc3)N12 (stereo not drawn); satisfied
COc1cc(CN2C(=O)N3CCN=C3c3ncc(N4CCOCC4)cc32)cc(OC)c1; not satisfied

## Input hey, is IC50 for O=C(C1CN2C(=O)N(Cc3ccc(Cl)cc3)c3cc(N4CCOCC4)cnc3C2=N1)N1CCOCC1 (stereo not drawn) lower than 500 nM or not?
## Output not satisfied

----------
- Measured Target: human P2X3 receptor (Homo sapiens)
- Construct: expressed in transfected cells; host or cells: CHO-K1
- Protocol Details: Calcium luminescence (photoprotein) assay in CHO-K1 cells co-expressing human P2X3 receptor, α,β-Met-ATP stimulation, FLEXSTATION readout
- Assay type: cell-based
- Details: Table 6; human P2X3 receptor antagonist activity, CHO-K1 cells, α,β-Met-ATP; read-out: h-P2X3 IC50
Reported IC50 values follow for various compounds
Enter your answer as a number in nM; do not include the unit.

## Input Which IC50 is reported for this compound? COc1cc(CN2C(=O)N3CC(C)N=C3c3ncc(N4CCOCC4)cc32)cc(OC)c1 (stereo not shown) [Example 3]
## Output 1160
